target: elastase from porcine pancreas (Sus scrofa, UniProt P00772); construct: elastase from porcine pancreas (7.5 units/mL); from tissue; host or cells: porcine pancreas; test: Elastase-inhibitory effect assay; assay type: biochemical; details: read-out: Anti-Elastase IC50
Sequence (P00772 27-266): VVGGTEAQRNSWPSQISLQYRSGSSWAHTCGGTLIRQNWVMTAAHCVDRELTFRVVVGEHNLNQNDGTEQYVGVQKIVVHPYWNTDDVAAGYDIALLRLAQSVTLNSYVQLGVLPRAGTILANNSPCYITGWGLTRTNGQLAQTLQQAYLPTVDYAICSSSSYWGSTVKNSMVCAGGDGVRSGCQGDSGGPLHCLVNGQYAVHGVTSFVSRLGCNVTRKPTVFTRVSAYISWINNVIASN
pIC50: −log10 of the molar value.

Molecule	Measured on	pIC50
O=C(O[C@@H]1Cc2c(O)cc(O)cc2O[C@@H]1c1cc(O)c(O)c(O)c1)c1cc(O)c(O)c(O)c1 [EGCG, Epigallocatechin gallate, reference compound]	elastase from porcine pancreas (Sus scrofa, UniProt P00772)	3.60
O=C(O)c1cc(O)c2ccccc2n1 [Compound 2, 4-hydroxyquinoline-2-carboxylic acid]	elastase from porcine pancreas (Sus scrofa, UniProt P00772)	3.77
CNC(=O)c1ccccc1NC(=O)/C=C/c1ccc(OC)c(OC)c1	elastase from porcine pancreas (Sus scrofa, UniProt P00772)	4.10
